- experiment: Tissue concentrations of vinorelbine and deacetylvinorelbine 4 h after oral vinorelbine in CES2-modified mice
- Assay type: in vivo, mouse
- settings: male, mouse, small intestine contents, oral, 10 mg/kg, male Ces2^–/– mice, oral vinorelbine 10 mg/kg, read-out: CSIC (small intestine contents concentration)
observed.property: concentration at 4 h (ng/g)
Output spec: scalar in ng/g, unitless text.

// query concentration at 4 h value for entry CCC1=C[C@@H]2CN(C1)Cc1c([nH]c3ccccc13)[C@@](C(=O)OC)(c1cc3c(cc1OC)N(C)[C@H]1[C@@](O)(C(=O)OC)[C@H](OC(C)=O)[C@]4(CC)C=CCN5CC[C@]31[C@@H]54)C2 [Vinorelbine, reference compound] 159000

###

- experiment: Tissue concentrations of vinorelbine and deacetylvinorelbine 4 h after i.v. vinorelbine in CES2-modified mice
- Type: in vivo, mouse
- settings: male, mouse, liver, intravenous, 10 mg/kg, male Ces2^–/– mice, i.v. vinorelbine 10 mg/kg, read-out: Cliver (liver concentration)
observed.property: concentration at 4 h (ng/g)
I only need the number, in ng/g, no unit after it.

Tell me the measured concentration at 4 h of CCC1=C[C@@H]2CN(C1)Cc1c([nH]c3ccccc13)[C@@](C(=O)OC)(c1cc3c(cc1OC)N(C)[C@H]1[C@@](O)(C(=O)OC)[C@H](OC(C)=O)[C@]4(CC)C=CCN5CC[C@]31[C@@H]54)C2 [Vinorelbine, reference compound] , please. 23400

###

- experiment: Tissue concentrations of capecitabine and its metabolites 2 h after oral capecitabine in CES2-modified mice
- Assay type: in vivo, mouse
- settings: female, mouse, small intestine, oral, 500 mg/kg, female Ces2^–/–V mice, oral capecitabine 500 mg/kg, read-out: CSI (small intestine tissue concentration)
observed.property: concentration at 2 h (ng/g)
Your answer is read as ng/g, so omit the unit and give the number.

Consider the molecule CCCCCOC(=O)Nc1nc(=O)n([C@@H]2O[C@H](C)[C@@H](O)[C@H]2O)cc1F [Capecitabine, reference compound] and give its measured concentration at 2 h. 2410

###

- experiment: Tissue concentrations of vinorelbine and deacetylvinorelbine 4 h after oral vinorelbine in CES2-modified mice
- Assay type: in vivo, mouse
- settings: male, mouse, colon, oral, 10 mg/kg, male Ces2^–/–A mice, oral vinorelbine 10 mg/kg, read-out: Ccolon (colon concentration)
observed.property: concentration at 4 h (ng/g)
The reply should contain only the number, in ng/g.

Using the record for CCC1=C[C@@H]2CN(C1)Cc1c([nH]c3ccccc13)[C@@](C(=O)OC)(c1cc3c(cc1OC)N(C)[C@H]1[C@@](O)(C(=O)OC)[C@H](OC(C)=O)[C@]4(CC)C=CCN5CC[C@]31[C@@H]54)C2 [Vinorelbine, reference compound] , report its concentration at 4 h. 788

###

- experiment: Plasma pharmacokinetics of capecitabine and its metabolites after oral capecitabine in CES2-modified mice
- Type: in vivo, mouse
- settings: female, mouse, plasma, po, 500 mg/kg, female wild-type, Ces2^–/–, Ces2^–/–A and Ces2^–/–V mice; oral capecitabine 500 mg/kg; plasma; read-out: mean Cmax, range over the mouse models
observed.property: Cmax

Can you look up the measured Cmax of O=c1[nH]cc(F)c(=O)[nH]1 [5-FU, 5-fluorouracil, reference compound] for me? 105 to 159 ng/mL

These measurements were taken from paper PMC11845761.
